Reference for the values: ChEMBL document CHEMBL4513216

test system: Plasmodium falciparum; assay: Screen against P. falciparum Asexual Blood Stage (ABS), at 5uM; type: functional, Dd2; details: tested at 5 uM
Hit rate of the full screen: of about 65,000 compounds, about 2,100 (3.2%) showed an effect of 50% or more. The median lay at about -52%. This excerpt belongs to a sample that is enriched for strong results.
Experimental Endpoint: INHIBITION (%)

[
  {
    "Compound": "Cc1cc2c(N)nc(=O)n(CC(=O)Nc3cccc(Cl)c3)c2s1",
    "Experimental Result": -44.3
  },
  {
    "Compound": "CN(Cc1ccccc1F)C(C(N)=O)c1ccccc1 (configuration not stated)",
    "Experimental Result": -90
  },
  {
    "Compound": "Cc1cc(C(=O)N2CCCC(n3cncn3)C2)nn1C (configuration not stated)",
    "Experimental Result": -8.41
  },
  {
    "Compound": "c1ccc(CN2CCCC2)c(CNc2cncc3nnnn23)c1",
    "Experimental Result": 61.4
  },
  {
    "Compound": "Cc1nn(C)c(Cl)c1C1CCCN1CC(=O)NCc1ccco1 (configuration not stated)",
    "Experimental Result": -24.5
  },
  {
    "Compound": "OCCN1CCN(Cc2cnc3c(-c4ccccc4)cnn3c2)CC1",
    "Experimental Result": 20.3
  },
  {
    "Compound": "c1ccc(Cc2noc(CN3CCCCC3Cn3cncn3)n2)cc1 (configuration not stated)",
    "Experimental Result": -14.9
  },
  {
    "Compound": "c1ccc(-c2cnn3cc(CN4CCC5(CCO5)CC4)cnc23)cc1",
    "Experimental Result": -302
  },
  {
    "Compound": "CC(CNC1CCN(Cc2ccncc2)CC1)c1ccc(F)cc1F (configuration not stated)",
    "Experimental Result": 70
  },
  {
    "Compound": "COCC(=O)N1Cc2ccnn2CC(COCCN(C)C)C1 (configuration not stated)",
    "Experimental Result": -13.6
  },
  {
    "Compound": "CC(C)n1c(=O)c2sccc2n(CC(=O)Nc2ccccc2)c1=O",
    "Experimental Result": -27.6
  },
  {
    "Compound": "CN(C)CC1(O)CCN(Cc2cnc3c(-c4ccccc4)cnn3c2)C1 (configuration not stated)",
    "Experimental Result": 65
  }
]
